Assay: Pharmacokinetics after a single oral dose in Syrian hamsters (serum, HPLC-MS/MS)
Assay type: in vivo
Conditions: hamster, serum, po; 60 mg/kg p.o. single dose; read-out: T1/2 (converted)
Description: Zapnometinib was synthesized by Chemcon GmbH (Freiburg, Germany). […] Drug administration and blood sampling in Syrian hamsters were performed by Viroclinics Xplore (Schaijk, the Netherlands) and are described in the sections “Drug administration” and “Sampling after inoculation”. […] Daily clinical observations included monitoring of signs such as ruffled fur, hunched back posture, accelerated breathing and lethargy, and the body weight was monitored before and 24 h post administration. […]
REPORTED_PROPERTY: half-life

Recorded half-life (compound `O=C(O)c1ccc(F)c(F)c1Nc1ccc(I)cc1Cl` ): 3.07 h

---

Assay: Pharmacokinetics after a single oral dose in Syrian hamsters (serum, HPLC-MS/MS)
Assay type: in vivo
Conditions: Syrian, hamster, serum, po; 30 mg/kg p.o. single dose
REPORTED_PROPERTY: Tmax (h)
# number only, unit h dropped from output

Measured Tmax, `O=C(O)c1ccc(F)c(F)c1Nc1ccc(I)cc1Cl` : 2

---

Assay: Pharmacokinetics after a single oral dose in Syrian hamsters (serum, HPLC-MS/MS)
Format: in vivo
Details: Syrian, hamster, serum, po; 15 mg/kg p.o. single dose; read-out: T1/2 (converted)
REPORTED_PROPERTY: half-life (h)
Please state the figure in h; there is no need to write the unit.

According to the records, this compound O=C(O)c1ccc(F)c(F)c1Nc1ccc(I)cc1Cl [zapnometinib] displays half-life of 2.74

---

Test: Pharmacokinetics after a single oral dose in Syrian hamsters (serum, HPLC-MS/MS)
Format: in vivo
Conditions: Syrian, hamster, serum, po; 30 mg/kg p.o. single dose; read-out: T1/2 (converted)
REPORTED_PROPERTY: half-life (h)
Number in h, nothing else.

For this compound ( O=C(O)c1ccc(F)c(F)c1Nc1ccc(I)cc1Cl [zapnometinib] ), measured half-life is 2.75

---

Test: Pharmacokinetics after a single oral dose in Syrian hamsters (serum, HPLC-MS/MS)
Format: in vivo
Conditions: Syrian, hamster, serum, po; all dose groups (15, 30, 60 mg/kg p.o.); read-out: apparent terminal half-life
REPORTED_PROPERTY: half-life

# half-life of O=C(O)c1ccc(F)c(F)c1Nc1ccc(I)cc1Cl [zapnometinib] = 2 to 3 h
